experimentalTarget: ScMyo3
experimentalDetails: SPOT peptide array binding signal intensity (averaged, normalized) (arbitrary units (background-subtracted, floor 0; scale differs between SH3 domains)); higher = stronger binding of the SH3 domain to the peptide
Param threshold (10) applies to SPOT peptide array binding signal intensity; output 1 when value >= threshold, -1 when value < threshold.

- NIKVLLNPKLGKPVK: -1
- FYHRPAPKPPVTKKV: 1
- VDFTLPPPPPPPGLD: 1
- ISRRRLPVIMHRLKM: -1
- DKKTKPTPPPKPSHL: -1
- HGKRRAPLLLAKLDV: -1
- PLQSKIPMLPSRRTM: -1
- TEVPIPRRPPPPQAA: 1
- VNIPSPSSSPPPIPK: 1
- NNNKMRPHLPPLSSG: 1
- KNRKNLPTIPIRLSG: -1
- PIVPSSPAPPLPLSG: 1
- RNNRPVPPPPPMRTT: 1
- RRSKSLPITPKSIFN: -1
